Biological target: Estrogen receptor (Homo sapiens)
Experiment: qHTS assay to identify small molecule agonists of the estrogen receptor alpha (ER-alpha) signaling pathway (AID 743075);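 note: HEK293 GripTite cells with ER-alpha and UAS-driven beta-lactamase reporter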
Conditions: HEK293 ER-alpha-UAS-bla, beta-lactamase FRET ratio, 18 h
Active and inactive are the calls of the source. Calls come from the whole dose curve.
Parameter call: string, one of y = active, n = inactive

// below: answered compounds
>>> class_label("N=C1N=C(N)c2ccccc21")
"n"
>>> class_label("C[n+]1cc2c3c(ccc2c2ccc4cc5c(cc4c21)OCO5)OCO3")
"y"
>>> class_label("C=C(C)C(=O)OCC(O)COc1ccc(C(C)(C)c2ccc(OCC(O)COC(=O)C(=C)C)cc2)cc1 (stereo not given)")
"n"
>>> class_label("CC(C)(C)NC(=O)[C@@H]1C[C@@H]2CCCC[C@@H]2CN1C[C@@H](O)[C@H](Cc1ccccc1)NC(=O)[C@H](CC(N)=O)NC(=O)c1ccc2ccccc2n1")
"n"
>>> class_label("O=C1C=CC(=O)N1")
"n"
>>> class_label("Oc1ccc(Cl)cc1Sc1cc(Cl)ccc1O")
"n"
>>> class_label("Clc1ccc2nsnc2c1NC1=NCCN1")
"n"
>>> class_label("CCCCCCCCOc1ccccc1C(=O)Nc1ccc(C(=O)OCC[N+](C)(CC)CC)cc1")
"n"

QUERY: Hi, do you know how Oc1cccc(-c2c3nc(c(-c4cccc(O)c4)c4ccc([nH]4)c(-c4cccc(O)c4)c4nc(c(-c5cccc(O)c5)c5ccc2[nH]5)CC4)C=C3)c1 came out in this test?
RESULT: n

QUERY: Hi, do you know how CNCc1cc(F)ccc1Oc1ccc(Cl)c(Cl)c1 came out in this test?
RESULT: n

----------
Experiment: qHTS assay to identify small molecule antagonists of the glucocorticoid receptor (GR) signaling pathway - cell viability counter screen (AID 720693); note: nearly all actives have a fitted effect of over 55% in size
Settings: GR-bla HeLa viability, CellTiter-Glo luminescence, 18 h, with 5 nM dexamethasone present; series mostly up to 58.5 µM
Inconclusive results are not listed. Calls of active or inactive are those of the source. The call rests on the fitted dose curve; in most records, active means well fitted cell-killing curve with a large enough effect in the repeat runs; inconclusive means weak or mixed curves, or effect the other way; inactive means no such curve, though single readings can be large or run the other way.
Parameter call: string, one of active, inactive

// below: answered compounds
>>> class_label("CCCCCCCCOc1ccccc1C(=O)Nc1ccc(C(=O)OCC[N+](C)(CC)CC)cc1")
"active"
>>> class_label("Cc1cccc(CN2CCN(C(c3ccccc3)c3ccc(Cl)cc3)CC2)c1 (stereo unspecified)")
"inactive"
>>> class_label("CN1CCN(CCC(=O)N2c3ccccc3Sc3ccc(C(F)(F)F)cc32)CC1")
"inactive"

QUERY: Hi, do you know how CCN(C(=O)c1cc(C)cc(OC[C@H](C)Nc2ccncc2)c1)C(C)C came out in this test?
RESULT: inactive

QUERY: Hi, do you know how Cc1onc(-c2ccccc2Cl)c1C(=O)N[C@@H]1C(=O)N2[C@@H]1SC(C)(C)[C@@H]2C(=O)O came out in this test?
RESULT: inactive

QUERY: Hi, do you know how Oc1ccc(C2(c3ccc(O)cc3)CC3CC2C2CCCC32)cc1 (stereo unspecified) came out in this test?
RESULT: inactive

QUERY: Hi, do you know how C[n+]1cc2c3c(ccc2c2ccc4cc5c(cc4c21)OCO5)OCO3 came out in this test?
RESULT: active

QUERY: Hi, do you know how OC1(c2ccc(Cl)c(C(F)(F)F)c2)CCN(CCCC(c2ccc(F)cc2)c2ccc(F)cc2)CC1 came out in this test?
RESULT: active

QUERY: Hi, do you know how Cc1c(C)c2c(c(C)c1O)CCC(C)(COc1ccc(CC3SC(=O)NC3=O)cc1)O2 (stereo unspecified) came out in this test?
RESULT: inactive

QUERY: Hi, do you know how CCCCCCCC[P+](CCCCCCCC)(CCCCCCCC)CCCCCCCC came out in this test?
RESULT: active

QUERY: Hi, do you know how CCCC/C=C/CCCCO came out in this test?
RESULT: inactive

QUERY: Hi, do you know how [O-][n+]1ccccc1SSc1cccc[n+]1[O-] came out in this test?
RESULT: inactive

QUERY: Hi, do you know how Cc1ccc(-n2nc(C(C)(C)C)cc2NC(=O)Nc2ccc(OCCN3CCOCC3)c3ccccc23)cc1 came out in this test?
RESULT: inactive

QUERY: Hi, do you know how COc1cccc2c1C(=O)c1c(O)c3c(c(O)c1C2=O)C[C@@](O)(C(=O)CO)C[C@@H]3O[C@H]1C[C@H](N)[C@H](O[C@@H]2CCCCO2)[C@H](C)O1 came out in this test?
RESULT: active

QUERY: Hi, do you know how CC(C)(C)CC(C)(C)c1ccc(OCCOCC[N+](C)(C)Cc2ccccc2)cc1 came out in this test?
RESULT: active

QUERY: Hi, do you know how Cc1[nH]nc2c1N=C(c1ccccc1Cl)c1cc([N+](=O)[O-])ccc1N2 came out in this test?
RESULT: active

QUERY: Hi, do you know how CCCCCCCCOC(=O)c1ccc(O)cc1 came out in this test?
RESULT: inactive

QUERY: Hi, do you know how CCCCCCCC[N+](CCCCCCCC)(CCCCCCCC)CCCCCCCC came out in this test?
RESULT: active

QUERY: Hi, do you know how Nc1ccccc1O came out in this test?
RESULT: inactive

----------
Assay: qHTS assay for small molecules that induce genotoxicity in human embryonic kidney cells expressing luciferase-tagged ATAD5 (AID 651632); note: nearly all actives have a fitted effect of over 15% in size
Conditions: HEK293T ATAD5-luciferase induction, 16 h; series mostly up to 83.3 µM
Records with an inconclusive call do not appear. Active and inactive are the calls of the source. Calls follow the shape of the dose curve; as a rule, active = well fitted activation curve with a large enough effect in the repeat runs; inconclusive = weak or mixed curves; inactive = no such curve, though single readings can be large or run the other way.
Parameter call: string, one of active, inactive

// below: answered compounds
>>> class_label("CCCC/C=C/CCCCO")
"inactive"
>>> class_label("CCCC(C)c1ccccc1O (stereo not drawn)")
"inactive"
>>> class_label("C1CCCC1")
"inactive"
>>> class_label("OCCN1CCN(CC/C=C2/c3ccccc3Sc3ccc(C(F)(F)F)cc32)CC1")
"inactive"
>>> class_label("CCN1/C(=C/C=C/c2sc3ccccc3[n+]2CC)Sc2ccccc21")
"inactive"

QUERY: Hi, do you know how Nc1ccc2c3c(cccc13)-c1ccccc1-2 came out in this test?
RESULT: inactive

QUERY: Hi, do you know how CCCCN1CCCC[C@H]1C(=O)Nc1c(C)cccc1C came out in this test?
RESULT: inactive

----------
Assay: A CellTox Green Cytotoxicity Assay to monitor cytotoxicity in HEK293 cells - 16 hour (AID 1224888); note: nearly all actives have a fitted effect of over 35% in size
Settings: CellTox Green fluorescence; series mostly up to 76.8 µM
Records with an inconclusive call do not appear. Calls of active or inactive are those of the source. Calls come from the whole dose curve; as a rule, active = well fitted activation curve with a large enough effect in the repeat runs; inconclusive = weak or mixed curves; inactive = flat fitted curve, though single readings scatter.
Parameter call: string, one of active, inactive

>>> class_label("O=C1C=CC(=O)N1")
"active"
>>> class_label("CC/C(=C(\\c1ccc(O)cc1)c1ccc(OCCN(C)C)cc1)c1ccccc1")
"active"
>>> class_label("Cc1nc(-c2ccc3c(c2)CCN(CCC2CCC(NC(=O)/C=C/c4ccc(F)cc4)CC2)CC3)no1 (stereo not drawn)")
"inactive"
>>> class_label("COc1cc(-c2ccc(N=C=O)c(OC)c2)ccc1N=C=O")
"inactive"

QUERY: Hi, do you know how Nc1cc(C(F)(F)F)ccc1S came out in this test?
RESULT: inactive

QUERY: Hi, do you know how Oc1cc2ccccc2c2ccccc12 came out in this test?
RESULT: inactive

QUERY: Hi, do you know how CC[C@@]1(O)C(=O)OCc2c1cc1n(c2=O)Cc2cc3c(CN(C)C)c(O)ccc3nc2-1 came out in this test?
RESULT: active

----------
Experiment: qHTS assay for identifying genotoxic compounds that show differential cytotoxicity against isogenic chicken DT40 cell lines with known DNA damage response pathways - wild type cell line (AID 743012); note: nearly all actives have a fitted effect of over 60% in size
Conditions: DT40 wild type chicken cells viability, CellTiter-Glo, 40 h; series mostly up to 68.4 µM
Records with an inconclusive call do not appear. Calls of active or inactive are those of the source. The call rests on the fitted dose curve; in most records, active means well fitted cell-killing curve with a large enough effect in the repeat runs; inconclusive means weak or mixed curves, or effect the other way; inactive means no such curve, though single readings can be large or run the other way.
Parameter call: string, one of active, inactive

// below: answered compounds
>>> class_label("Oc1c(Cl)cc(Cl)c2cccnc12")
"active"
>>> class_label("CCCCCCCCCCCC(=O)NCCCN(C)C")
"active"
>>> class_label("CC(C)(C)C(=O)OCOC(=O)[C@@H]1N2C(=O)[C@@H](NC(=O)[C@H](N)c3ccccc3)[C@H]2SC1(C)C")
"inactive"
>>> class_label("O=C(OCC(COC(=O)c1ccccc1)(COC(=O)c1ccccc1)COC(=O)c1ccccc1)c1ccccc1")
"inactive"
>>> class_label("C[C@H](CCC(=O)O)[C@H]1CC[C@H]2[C@@H]3CC[C@@H]4C[C@H](O)CC[C@]4(C)[C@H]3CC[C@]12C")
"inactive"

QUERY: Hi, do you know how C[n+]1ccn(Cc2ccccc2)c1 came out in this test?
RESULT: inactive

QUERY: Hi, do you know how CCCC1O[C@@H]2C[C@H]3[C@@H]4CCC5=CC(=O)C=C[C@]5(C)[C@H]4[C@@H](O)C[C@]3(C)[C@]2(C(=O)CO)O1 (stereo not given in full) came out in this test?
RESULT: inactive

Where do the numbers come from? From PubChem BioAssay (Tox21).
